B1: Far upstream element-binding protein 3, residues 75 to 150; numbered along this chain, Q96I24 (parent)
chain: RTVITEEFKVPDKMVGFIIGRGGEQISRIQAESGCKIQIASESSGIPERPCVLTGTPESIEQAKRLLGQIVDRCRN

# Variants of: B1
# assay.info: abundance fitness (aPCA) (normalised: wild type 0, dead -1); higher = more abundant; growth selection in yeast, the domain comes from the species named
# protocol.conditions: Homo sapiens
The following variants are shown together with reported abundance fitness values.
Give a plain numeric answer without units written out.

Solved cases (6 shown):
variant.name: G20M
value.kind: abundance fitness
numeric.readout: -0.312
--
variant.name: P47S
value.kind: abundance fitness
numeric.readout: 0.024
--
variant.name: Q30D
value.kind: abundance fitness
numeric.readout: -0.582
--
variant.name: P47W
value.kind: abundance fitness
numeric.readout: -0.084
--
variant.name: V71N
value.kind: abundance fitness
numeric.readout: -0.072
--
variant.name: I4G
value.kind: abundance fitness
numeric.readout: -0.14

Next, consider the following variant.
QUERY: Look up abundance fitness: C74S
RESULT: -0.01
